Test system: S. cerevisiae SK1 pCDA2-eGFP (USY613), sporulating;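 note: active if sensitivity score above 5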
Assay Method Text: CDA2-GFP sporulation assay sensitivity score (z-score vs DMSO controls); higher = stronger inhibition of sporulation, active = hit call of the paper
Quantity Measured: CDA2-GFP sporulation assay sensitivity score
Number only, please.

CCN1CCN(c2cc3c(cc2F)c(=O)c(C(=O)O)cn3C2CC2)CC1 [Enrofloxacin] (stock concentration (mM, diluted 1:100): 10); 2.66
C#C[C@]1(O)CC[C@H]2[C@@H]3CCc4cc(O)ccc4[C@H]3CC[C@@]21C [Ethynylestradiol] (stock concentration (mM, diluted 1:100): 10); 6.44

Could you now look at the following compound, please?
// query CDA2-GFP sporulation assay sensitivity score value for entry CN1CCN(C2=Nc3cc(F)ccc3Cc3ccccc32)CC1 [Fluperlapine] (stock concentration (mM, diluted 1:100): 10)
17.9
